// provenance: ChEMBL document CHEMBL4033748

Record: IC50 reported on Cytochrome P450 3A4 (Homo sapiens, UniProt P08684).
Sequence (P08684 whole entry): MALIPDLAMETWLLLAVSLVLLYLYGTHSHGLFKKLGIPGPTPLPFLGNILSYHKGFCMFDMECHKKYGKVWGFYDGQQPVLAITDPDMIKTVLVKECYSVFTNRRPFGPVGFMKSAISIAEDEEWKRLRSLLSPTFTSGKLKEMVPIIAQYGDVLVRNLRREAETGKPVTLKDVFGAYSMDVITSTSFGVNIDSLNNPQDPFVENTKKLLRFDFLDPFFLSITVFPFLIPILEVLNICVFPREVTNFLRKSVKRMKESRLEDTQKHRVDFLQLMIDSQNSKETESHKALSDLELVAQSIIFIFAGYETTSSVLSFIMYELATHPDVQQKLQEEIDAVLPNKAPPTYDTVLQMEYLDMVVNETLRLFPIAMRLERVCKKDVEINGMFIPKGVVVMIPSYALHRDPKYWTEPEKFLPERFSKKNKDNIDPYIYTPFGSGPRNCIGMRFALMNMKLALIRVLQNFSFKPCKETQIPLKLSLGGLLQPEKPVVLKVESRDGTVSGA
ASSAY READOUT: IC50 (µM)

>>> df
                               given_smiles  unit_descriptor  inequality_operator  recorded_measurement
0  O=C(NC[C@@H]1CCOC1)c1ccc(NC(=O)N2Cc3ccccc3C2)cc1               µM                    >                    20
1  CC(C)(O)CC(=O)N1CCC(c2ccc(NC(=O)N3Cc4ccccc4C3)cc2)CC1               µM                    =                    16

----------
system: PC-3; test: Antiproliferative activity against human PC3 cells assessed as reduction in cell viability incubated for 5 days by Cell-titer Glo reagent based assay; format: functional; conditions: Homo sapiens, PC-3, 120 h
Criterion: IC50 strictly under 20 nM. Met: Y. Not met: N.

>>> df
                                    compound  category_label
 0  CN(CCC(C)(C)C)C(=O)c1ccc(NC(=O)N2Cc3ccccc3C2)cc1               N
 1  CN1CCC(C(=O)N2CCC(c3ccc(NC(=O)N4Cc5ccc(F)cc5C4)cc3)CC2)CC1               Y
 2  CC(C)CCNC(=O)c1cccc(NC(=O)N2Cc3ccccc3C2)c1               N
 3  O=C(Nc1ccc(N2CCN(C(=O)c3ccccc3)CC2)cc1)N1Cc2ccccc2C1               N
 4  CN1CCN(C(C)(C)C(=O)N2CCC(c3ccc(NC(=O)N4Cc5ccccc5C4)cc3)CC2)CC1               Y
 5  CC(C)C(=O)N1CCC(c2ccc(NC(=O)N3Cc4ccccc4C3)cc2)CC1               Y
 6  O=C(NCC1CCCOC1)c1ccc(NC(=O)N2Cc3ccccc3C2)cc1 (stereo not given)               Y
 7  O=C(Nc1ccc(C2CCN(C(=O)[C@@H]3CCCO3)CC2)cc1)N1Cc2ccc(Cl)cc2C1               Y
 8     N#CN=C(NCCCCCCOc1ccc(Cl)cc1)Nc1ccncc1               Y
 9  O=C(Nc1ccc(C2CCN(C(=O)c3ccccc3)CC2)cc1)N1Cc2ccccc2C1               Y
10  CC(C)(O)CC(=O)N1CCC(c2ccc(NC(=O)N3Cc4ccccc4C3)cc2)CC1               N
11  O=C(NCc1ccc(S(=O)(=O)c2ccccc2)cc1)N1Cc2ccccc2C1               N
12  CC(C)CCNC(=O)c1ccc(NC(=O)N2Cc3ccc(C#N)cc3C2)cc1               N
13  CC1(C(=O)N2CCC(c3ccc(NC(=O)N4Cc5ccccc5C4)cc3)CC2)COC1               Y
14  COc1cc2c(cc1OC)CN(C(=O)Nc1ccc(C(=O)NCCC(C)C)cc1)C2               N
15  CCC(C)C(=O)N1CCC(Oc2ccc(NC(=O)N3Cc4ccccc4C3)cc2)CC1 (stereo not given)               N
16  CC(C)CCC(=O)Nc1ccc(NC(=O)N2Cc3ccccc3C2)cc1               Y
17  CC(C)C[C@@H](CO)NC(=O)c1ccc(NC(=O)N2Cc3ccccc3C2)cc1               N
18  O=C(Nc1ccc(S(=O)(=O)c2ccccc2)cc1)N1Cc2ccccc2C1               N
19  O=C(Nc1ccc(C2CN(C(=O)c3ccccc3)C2)cc1)N1Cc2ccc(F)cc2C1               Y

----------
Record: IC50 reported on Cytochrome P450 2C9 (Homo sapiens).
Sequence (P11712 whole entry): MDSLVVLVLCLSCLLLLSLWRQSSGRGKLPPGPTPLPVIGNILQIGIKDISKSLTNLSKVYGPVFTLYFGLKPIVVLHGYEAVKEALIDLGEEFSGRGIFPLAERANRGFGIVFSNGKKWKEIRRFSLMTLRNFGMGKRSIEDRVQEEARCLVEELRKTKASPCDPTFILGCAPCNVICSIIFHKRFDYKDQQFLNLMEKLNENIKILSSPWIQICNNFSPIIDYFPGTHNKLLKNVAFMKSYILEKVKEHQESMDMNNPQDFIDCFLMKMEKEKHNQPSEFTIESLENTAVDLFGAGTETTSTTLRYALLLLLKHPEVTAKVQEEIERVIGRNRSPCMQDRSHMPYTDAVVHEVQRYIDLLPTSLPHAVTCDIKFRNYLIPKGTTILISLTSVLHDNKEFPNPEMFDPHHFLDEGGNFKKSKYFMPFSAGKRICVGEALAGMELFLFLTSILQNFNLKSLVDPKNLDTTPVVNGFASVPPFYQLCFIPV
ASSAY READOUT: IC50 (µM)

>>> print(df.to_string())
                               given_smiles  unit_descriptor  inequality_operator  recorded_measurement
0  CC(C)(O)CC(=O)N1CCC(c2ccc(NC(=O)N3Cc4ccccc4C3)cc2)CC1               µM                    =                   8.4
1  O=C(NC[C@@H]1CCOC1)c1ccc(NC(=O)N2Cc3ccccc3C2)cc1               µM                    >                    20

----------
Recorded solubility values for a group of compounds are listed next.
assay: Aqueous solubility of the compound; format: physicochemical; conditions: buffer
ASSAY READOUT: solubility

                                   compound  assay_readout  recorded_measurement
0       NC(=O)c1ccc(NC(=O)N2Cc3ccccc3C2)cc1     solubility                < 5 µM
1  O=C(NCC1CCOC1)c1ccc(NC(=O)N2Cc3ccccc3C2)cc1 (stereo not given)     solubility                < 5 µM
2  CC(C)CCNC(=O)c1ccc(NC(=O)N2Cc3ccccc3C2)cc1     solubility                < 5 µM
3     N#CN=C(NCCCCCCOc1ccc(Cl)cc1)Nc1ccncc1     solubility                < 5 µM
4      COC(=O)c1ccc(NC(=O)N2Cc3ccccc3C2)cc1     solubility                < 5 µM
5  CC(C)CCC(=O)Nc1ccc(NC(=O)N2Cc3ccccc3C2)cc1     solubility                < 5 µM
6            Cc1ccc(NC(=O)N2Cc3ccccc3C2)cc1     solubility                < 5 µM
7  CC(C)CCn1cc(-c2ccc(NC(=O)N3Cc4ccccc4C3)cc2)cn1     solubility                < 5 µM
8  O=C(Nc1ccc(C(=O)N2CCN(c3ccccn3)CC2)cc1)N1Cc2ccccc2C1     solubility                < 5 µM
9  CN(CCC(C)(C)C)C(=O)c1ccc(NC(=O)N2Cc3ccccc3C2)cc1     solubility                < 5 µM

----------
Record: Ki reported on Nicotinamide phosphoribosyltransferase (Homo sapiens).
Sequence (P43490 whole entry): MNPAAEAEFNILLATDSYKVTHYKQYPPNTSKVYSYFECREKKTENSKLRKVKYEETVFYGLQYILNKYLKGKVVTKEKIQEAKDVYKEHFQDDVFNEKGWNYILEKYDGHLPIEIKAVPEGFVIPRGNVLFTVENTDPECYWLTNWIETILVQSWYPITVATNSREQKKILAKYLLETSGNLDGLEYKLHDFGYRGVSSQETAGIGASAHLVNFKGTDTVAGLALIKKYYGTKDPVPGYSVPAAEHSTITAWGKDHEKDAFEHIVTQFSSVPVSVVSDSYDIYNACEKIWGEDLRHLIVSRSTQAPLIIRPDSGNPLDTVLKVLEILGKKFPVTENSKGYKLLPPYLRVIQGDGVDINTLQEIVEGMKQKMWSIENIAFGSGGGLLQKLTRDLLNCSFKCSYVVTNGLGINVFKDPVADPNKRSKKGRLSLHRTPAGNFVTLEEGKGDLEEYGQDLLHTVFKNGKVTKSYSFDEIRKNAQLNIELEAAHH
ASSAY READOUT: Ki

In [3]: df
Out[3]:
                                given_smiles  recorded_measurement
 0  COc1cc2c(cc1OC)CN(C(=O)Nc1ccc(C(=O)NCCC(C)C)cc1)C2             > 9000 nM
 1  O=C(Nc1ccc(C2CN(C(=O)c3ccccc3)C2)cc1)N1Cc2ccc(F)cc2C1                1.9 nM
 2  CC(C)(O)CC(=O)N1CCC(c2ccc(NC(=O)N3Cc4ccc(F)cc4C3)cc2)CC1                2.5 nM
 3  O=C(Nc1ccc(S(=O)(=O)c2ccccc2)cc1)N1Cc2ccccc2C1                 21 nM
 4            Cc1ccc(NC(=O)N2Cc3ccccc3C2)cc1               2200 nM
 5  O=C(Nc1ccc(C2CCN(C(=O)[C@@H]3CCCO3)CC2)cc1)N1Cc2ccc(Cl)cc2C1                1.7 nM
 6  CC(C)CCNC(=O)c1cccc(NC(=O)N2Cc3ccccc3C2)c1             > 8900 nM
 7  CN1CCN(C(C)(C)C(=O)N2CCC(c3ccc(NC(=O)N4Cc5ccccc5C4)cc3)CC2)CC1                1.5 nM
 8  CN1CCC(C(=O)N2CCC(c3ccc(NC(=O)N4Cc5ccc(F)cc5C4)cc3)CC2)CC1                9.4 nM
 9  CN(CCC(C)(C)C)C(=O)c1ccc(NC(=O)N2Cc3ccccc3C2)cc1                160 nM
10  CC(C)(O)CC(=O)N1CCC(c2ccc(NC(=O)N3Cc4ccccc4C3)cc2)CC1                5.6 nM
11  CC1(C(=O)N2CCC(c3ccc(NC(=O)N4Cc5ccccc5C4)cc3)CC2)COC1                5.1 nM
12  CC(C)CCC(=O)Nc1ccc(NC(=O)N2Cc3ccccc3C2)cc1                 58 nM
13      COC(=O)c1ccc(NC(=O)N2Cc3ccccc3C2)cc1                112 nM
14  CC1(C(=O)N2CCC(c3ccc(NC(=O)N4Cc5ccccc5C4)cc3)CC2)CC1                4.3 nM
15  O=C(Nc1ccc(C2CCN(S(=O)(=O)C3CC3)CC2)cc1)N1Cc2ccc(F)cc2C1                3.9 nM

----------
test system: Liver; assay: Unbound intrinsic clearance in human liver microsomes at 0.5 uM in presence of NADPH incubated for 5 to 30 mins by HPLC-MS/MS method; format: ADME, microsome
Criterion: CL free strictly under 200 mL/min/kg. Met: 1.0. Not met: 0.0.

>>> df
                                    molecule  category_label
 0  CC(C)(O)CC(=O)N1CCC(c2ccc(NC(=O)N3Cc4ccc(F)cc4C3)cc2)CC1             1.0
 1  O=C(Nc1ccc(C2CN(C(=O)c3ccccc3)C2)cc1)N1Cc2ccc(F)cc2C1             1.0
 2  CC1(C(=O)N2CCC(c3ccc(NC(=O)N4Cc5ccccc5C4)cc3)CC2)COC1             1.0
 3  CCC(C)C(=O)N1CCC(Oc2ccc(NC(=O)N3Cc4ccccc4C3)cc2)CC1 (stereo unspecified)             0.0
 4  CC(C)(O)CC(=O)N1CCC(c2ccc(NC(=O)N3Cc4ccccc4C3)cc2)CC1             1.0
 5  O=C(Nc1ccc(C2CCN(C(=O)[C@@H]3CCCO3)CC2)cc1)N1Cc2ccc(Cl)cc2C1             0.0
 6  O=C(Nc1ccc(C2=CCN(C(=O)c3ccccc3)CC2)cc1)N1Cc2ccccc2C1             0.0
 7  CN(CCC(C)(C)C)C(=O)c1ccc(NC(=O)N2Cc3ccccc3C2)cc1             0.0
 8  O=C(NCc1ccc(S(=O)(=O)c2ccccc2)cc1)N1Cc2ccccc2C1             0.0
 9  O=C(Nc1ccc(N2CCN(C(=O)c3ccccc3)CC2)cc1)N1Cc2ccccc2C1             1.0
10       NC(=O)c1ccc(NC(=O)N2Cc3ccccc3C2)cc1             1.0
11  CC(C)C(=O)N1CCC(c2ccc(NC(=O)N3Cc4ccccc4C3)cc2)CC1             1.0
12  CC(C)CCNC(=O)c1ccc(NC(=O)N2Cc3ccccc3C2)cc1             0.0
13  O=C(NCCCc1ccccc1)c1ccc(NC(=O)N2Cc3ccccc3C2)cc1             0.0
14    CCCNC(=O)c1ccc(NC(=O)N2Cc3ccccc3C2)cc1             1.0
15  CC(C)CCNS(=O)(=O)c1ccc(NC(=O)N2Cc3ccccc3C2)cc1             0.0
16  O=C(Nc1ccc(C2CCN(C(=O)c3ccccc3)CC2)cc1)N1Cc2ccccc2C1             1.0
17  CN1CCC(C(=O)N2CCC(c3ccc(NC(=O)N4Cc5ccc(F)cc5C4)cc3)CC2)CC1             1.0
18  O=C(Nc1ccc(C2CCN(S(=O)(=O)C3CC3)CC2)cc1)N1Cc2ccc(F)cc2C1             1.0
19  CC(C)CCNC(=O)c1ccc(NC(=O)N2Cc3ccccc3C2)nc1             1.0
20  CC(C)CCC(=O)Nc1ccc(NC(=O)N2Cc3ccccc3C2)cc1             1.0
